The values you see were collected from patent US20210246218A1.

study_target: T1, CD137 protein (UniProt Q07011 24-186, limits assumed)
T1 construct: also called CD137 antigen; CD137 receptor
T1 sequence (Q07011 24-186 limits assumed): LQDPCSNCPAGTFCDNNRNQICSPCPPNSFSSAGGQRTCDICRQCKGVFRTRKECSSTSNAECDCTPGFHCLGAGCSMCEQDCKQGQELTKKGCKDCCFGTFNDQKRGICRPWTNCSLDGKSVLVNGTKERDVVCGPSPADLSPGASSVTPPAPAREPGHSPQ
assay_details: BLI (Octet Red 96), antibody on anti-human Fc sensors, CD137 protein in solution, 1:1 model

binder	koff (s⁻¹)
humanized anti-CD137 antibody clone 3715 (IgG4 S228P/kappa) (antibody, V domains shown) VH: QVQLVQSGAEVVKPGASVKVSCKASGYTFAGFEMHWVRQAPGQGLGWMGAIDPKTGGTDYNQKFKDRVTMTADTSISTAYMELSRLRSDDTAVYYCTRDLGYFDVWGQGTLVTVSS VL: DIQMTQSPSSLSASVGDRVTITCRASQDIRSNLNWYQQKPGGAVKLLIYYTSRLHSGVPSRFSGSGSGTDYTLTISSLQPEDFATYFCQQSEKLPRTFGGGTKVEIRR	0.0018
